tgt: human F508del-CFTR (Homo sapiens, UniProt P13569, DEL508-508)
Sequence (P13569 with tags, fused parts or gaps DEL508-508): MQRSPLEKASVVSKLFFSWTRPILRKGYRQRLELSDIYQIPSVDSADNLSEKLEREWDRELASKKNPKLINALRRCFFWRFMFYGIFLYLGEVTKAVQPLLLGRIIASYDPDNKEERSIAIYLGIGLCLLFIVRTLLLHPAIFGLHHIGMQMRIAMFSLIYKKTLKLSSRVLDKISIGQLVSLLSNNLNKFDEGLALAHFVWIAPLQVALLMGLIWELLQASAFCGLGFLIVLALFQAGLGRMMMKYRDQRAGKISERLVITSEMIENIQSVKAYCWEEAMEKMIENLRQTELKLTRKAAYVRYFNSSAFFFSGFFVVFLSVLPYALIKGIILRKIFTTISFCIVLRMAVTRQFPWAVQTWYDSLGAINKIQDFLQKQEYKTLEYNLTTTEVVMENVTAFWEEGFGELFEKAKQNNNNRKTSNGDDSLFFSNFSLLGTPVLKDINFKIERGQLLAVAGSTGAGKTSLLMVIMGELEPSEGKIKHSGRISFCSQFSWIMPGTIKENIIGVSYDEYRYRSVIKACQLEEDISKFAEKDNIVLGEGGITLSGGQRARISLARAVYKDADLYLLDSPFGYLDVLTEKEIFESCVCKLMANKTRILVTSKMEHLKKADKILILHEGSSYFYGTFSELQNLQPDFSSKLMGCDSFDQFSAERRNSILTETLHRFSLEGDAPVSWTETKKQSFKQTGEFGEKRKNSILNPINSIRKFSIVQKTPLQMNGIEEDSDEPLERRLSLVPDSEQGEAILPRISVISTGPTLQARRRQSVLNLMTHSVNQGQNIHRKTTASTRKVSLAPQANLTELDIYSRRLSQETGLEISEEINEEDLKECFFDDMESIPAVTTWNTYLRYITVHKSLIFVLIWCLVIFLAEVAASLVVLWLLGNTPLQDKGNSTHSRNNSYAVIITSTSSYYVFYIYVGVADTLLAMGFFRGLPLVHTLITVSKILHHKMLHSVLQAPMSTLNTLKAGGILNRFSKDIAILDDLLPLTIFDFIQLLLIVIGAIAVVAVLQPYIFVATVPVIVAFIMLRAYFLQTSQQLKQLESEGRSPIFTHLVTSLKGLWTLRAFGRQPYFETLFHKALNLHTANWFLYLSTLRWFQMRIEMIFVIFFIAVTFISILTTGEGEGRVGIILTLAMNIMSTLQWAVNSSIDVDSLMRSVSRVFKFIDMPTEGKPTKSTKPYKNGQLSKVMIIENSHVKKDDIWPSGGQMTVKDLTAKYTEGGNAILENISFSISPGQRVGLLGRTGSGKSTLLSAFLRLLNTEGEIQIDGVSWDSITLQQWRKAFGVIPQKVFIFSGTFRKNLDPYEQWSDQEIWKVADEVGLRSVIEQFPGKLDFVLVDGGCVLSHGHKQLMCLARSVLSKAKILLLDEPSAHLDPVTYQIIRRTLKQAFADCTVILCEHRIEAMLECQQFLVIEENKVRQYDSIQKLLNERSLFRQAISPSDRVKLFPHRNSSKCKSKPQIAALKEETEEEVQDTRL
method: F508del-CFTR cell surface expression (corrector activity), DiscoveRx ß-galactosidase complementation chemiluminescence assay in recombinant U2OS cell line;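 also: U2OS cells co-expressing ProLink-tagged F508del-CFTR and a membrane-anchored enzyme acceptor, where more surface CFTR restores β-galactosidase activity measured by chemiluminescence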
run conditions: U2OS, in relation to Emax of corrector lumacaftor (=100%); arithmetic mean values
Give 1 (yes) when the value for Emax is at least 300%. Give 0 (no) when it is less.

molecule smiles | category
CC(C)C[C@H]1C(=O)N2CCOC[C@@H]2C(=O)N[C@H](Cc2ccccc2)COc2ccc3ccccc3c2C(=O)N[C@H](C(=O)NCCc2cccc(C#N)c2)CC(=O)N1C | 0 (no)
COc1nccc2c1C(=O)N[C@H](C(=O)NCCc1nc(C3CC3)no1)CC(=O)N(C)[C@@H](CC(C)C)C(=O)N1CCCC[C@@H]1C(=O)N[C@H](Cc1ccccc1)CO2 | 1 (yes)
COc1cccc(CCNC(=O)[C@@H]2CC(=O)N(C)[C@@H](CC(C)C)C(=O)N(C)CC(=O)N[C@H](Cc3ccccc3)COc3ccc4nc(C)oc4c3C(=O)N2)c1 | 1 (yes)
COc1cccc(CCNC(=O)[C@@H]2CC(=O)N(C)[C@@H](CC(C)C)C(=O)N3CCN(C4CC4)C[C@@H]3C(=O)N[C@H](Cc3ccccc3)COc3ccc4nc(C)oc4c3C(=O)N2)c1 | 1 (yes)
Cc1cc(CCNC(=O)[C@@H]2CC(=O)N(C)[C@@H](CC(C)C)C(=O)N(C)[C@H](Cc3ccccc3)C(=O)N[C@H](Cc3ccccc3)COc3cnc4ccc(F)cc4c3C(=O)N2)on1 | 1 (yes)

Source listed as patent US20240208992A1.
